Hey, just so you know, these numbers are from patent US9550796B2.

biological target: UniProt:Q15059
Sequence (Q15059 20-477): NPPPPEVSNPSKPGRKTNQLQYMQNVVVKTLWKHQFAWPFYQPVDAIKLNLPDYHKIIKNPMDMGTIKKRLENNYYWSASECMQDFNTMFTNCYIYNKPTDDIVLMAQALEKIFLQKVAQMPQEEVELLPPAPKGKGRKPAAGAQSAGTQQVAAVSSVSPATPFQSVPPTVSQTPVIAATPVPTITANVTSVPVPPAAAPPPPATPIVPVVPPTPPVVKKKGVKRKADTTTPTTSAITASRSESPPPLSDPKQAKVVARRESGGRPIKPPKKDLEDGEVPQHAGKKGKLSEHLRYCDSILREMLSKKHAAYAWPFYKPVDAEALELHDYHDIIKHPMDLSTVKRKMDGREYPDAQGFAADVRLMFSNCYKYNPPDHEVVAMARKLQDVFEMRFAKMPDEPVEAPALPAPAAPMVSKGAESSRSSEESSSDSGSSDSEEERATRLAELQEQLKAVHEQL
Provide the recorded pIC50 for the entries that follow.
Numbers only, as −log10 of the molar value.

Known results for compounds:
{"columns": ["COMPOUND", "NUMBER"],
 "data": [
  ["Cc1cc(N2C(=O)c3c(NC(=O)CN(C)C)cn(C)c3C2c2ccc(Cl)cc2)cn2c(C)nnc12 (centres unmarked)", 7.47],
  ["Cc1cc(N2C(=O)c3cc(C4CCOCC4)n(C)c3C2c2ccc(Cl)cc2)cn2c(C)nnc12 (centres unmarked)", 7.36],
  ["CCOC(=O)n1c(C2=CCOCC2)c(C)c2c1C(c1ccc(Cl)cc1)N(c1cc(C)c3nnc(C)n3c1)C2=O (centres unmarked)", 7.96],
  ["Cc1cn(C)c2c1C(=O)N(c1cc(C)c3nnc(C(F)F)n3c1)C2c1ccc(Cl)cc1 (centres unmarked)", 7.68],
  ["Cc1cc(N2C(=O)c3ccn(C)c3C2c2ccc(C#N)cc2)cn(C)c1=O (centres unmarked)", 6.70],
  ["COc1ncc(-c2cc3c(n2C)[C@@H](c2ccc(Cl)cc2)N(c2cc(C)c(=O)n(C)c2)C3=O)c(OC)n1", 7.55]
]}

Kindly give each listed record's pIC50.
1. Cc1c[nH]c2c1C(=O)N(c1cc(C)c3nnc(C)n3c1)C2c1ccc(Cl)cc1 (centres unmarked)
2. COc1ncccc1-c1cc2c(n1C)C(c1ccc(Cl)cc1)N(c1cc(C)c3nnc(C)n3c1)C2=O (stereo in doubt)
3. Cc1cn(CC(=O)N(C)C)c2c1C(=O)N(c1cc(C)c3nnc(C)n3c1)C2c1ccc(Cl)cc1 (centres unmarked)

1: 7.80; 2: 7.68; 3: 7.24

Kindly give each listed record's pIC50.
1. Cc1cc(N2C(=O)c3c(C4CC4)cn(C)c3[C@H]2c2ccc(Cl)cc2)cn2c(C)nnc12
2. Cc1cn(CCN(C)C)c2c1C(=O)N(c1cc(C)c3nnc(C)n3c1)C2c1ccc(Cl)cc1 (centres unmarked)

1. 7.82
2. 7.34
